Sourced from patent WO2025083273A1

Target: T1, DR3-8i (human)
T1 construct: also called purified monomeric DR3-8i antigen protein
T1 chain: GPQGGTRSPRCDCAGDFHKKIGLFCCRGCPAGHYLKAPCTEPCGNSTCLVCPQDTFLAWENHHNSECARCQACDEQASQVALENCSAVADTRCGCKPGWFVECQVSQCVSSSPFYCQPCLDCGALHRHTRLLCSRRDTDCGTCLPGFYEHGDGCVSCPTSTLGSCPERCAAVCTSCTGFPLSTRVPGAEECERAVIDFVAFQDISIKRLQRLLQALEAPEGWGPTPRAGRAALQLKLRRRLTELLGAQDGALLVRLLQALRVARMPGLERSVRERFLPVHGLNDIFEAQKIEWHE
Test: BLI, IgG captured on protein A, DR3-8i in solution; Average
pKd: −log10 of the molar value.
Reported pKd values are given for each entry in this list.

BINDER	pKd
VHg9/VLg11 (antibody, human IgG1, V domains shown, human IgG1) VH: EVQLVESGGGLVKPGGSLRLSCAASGFTFSSYAMSWVRQAPGKGLEWVSTISDGDSYSYFPDSVKDRFTISRDNAKNSLYLQMNSLRAEDTAVYYCARDRIYGSVQYYAMDYWGQGTLVTVSS VL: DIVMTQSPDSLAVSLGERATINCRASESVEFSGTSLMQWYQQKPGQPPKLLIYAASNVESGVPDRFSGSGSGTDFTLTISSLQAEDVAVYYCQQSRKLPYTFGQGTKLEIK	9.73
VHg2/VLs10 (antibody, human IgG1, V domains shown, human IgG1; also called VHg2_VLg10) VH: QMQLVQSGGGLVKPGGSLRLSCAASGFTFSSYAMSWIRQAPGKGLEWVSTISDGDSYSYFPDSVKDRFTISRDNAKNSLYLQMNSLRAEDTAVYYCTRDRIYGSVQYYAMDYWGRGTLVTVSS VL: ETTLTQSPGTLSLSPGERATLSCRASQSVSSSSLAWYQQKPGQAPRLLIYGASSRATGIPDRFSGSGSGTDFTLTISRLEPEDFAVYYCHQYGGSWTFGKGTKVEIK	9.38
VHg6/VLg13 (antibody, human IgG1, V domains shown, human IgG1) VH: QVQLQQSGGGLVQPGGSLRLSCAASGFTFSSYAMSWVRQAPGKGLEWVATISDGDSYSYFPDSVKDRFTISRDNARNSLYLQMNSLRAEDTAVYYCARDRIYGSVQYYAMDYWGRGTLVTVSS VL: DIQMTQSPSSLSASVGDRVTITCRASESVEFSGTSLMQWYQQKPGKAPKLLIYAASNVESGVPSRFSGSGSGTDFTFTISSLQPEDIATYYCQQSRKLPYTFGQGTKLEIK	9.80
